Assay: Intracellular fraction of unbound compound (fu,cell), dialysis of cell homogenate
Conditions: human, mock-transfected HEK293 cell homogenate
quantity: fraction unbound at 4 h

Past entries and their recorded results:
CN(CCOc1ccc(CC2SC(=O)NC2=O)cc1)c1ccccn1 (centres unmarked): 0.058
O=C(O)C[C@H](O)C[C@H](O)/C=C/c1c(C2CC2)nc2ccccc2c1-c1ccc(F)cc1: 0.023

I: CCC(C)(C)C(=O)O[C@H]1C[C@@H](C)C=C2C=C[C@H](C)[C@H](CC[C@@H](O)C[C@@H](O)CC(=O)O)[C@H]21
II: O=C(O)Cc1ccccc1Nc1c(Cl)cccc1Cl
III: CC(C)NCC(O)COc1cccc2ccccc12 (centres unmarked)
**Q:** Ranking field: fraction unbound at 4 h; order: falling. Submit the labels in the order that the ranking request calls for.
**A:** II, III, I
(II: 0.059, III: 0.032, I: 0.019)

The measured values listed here are drawn from paper PMC5320532.
